target: NDR1 (Homo sapiens (Human), UniProt Q15208); assay: KiNativ assay; format: binding; settings: H929 live cell, read-out: inhibition (10 μM)
Sequence (Q15208 whole entry): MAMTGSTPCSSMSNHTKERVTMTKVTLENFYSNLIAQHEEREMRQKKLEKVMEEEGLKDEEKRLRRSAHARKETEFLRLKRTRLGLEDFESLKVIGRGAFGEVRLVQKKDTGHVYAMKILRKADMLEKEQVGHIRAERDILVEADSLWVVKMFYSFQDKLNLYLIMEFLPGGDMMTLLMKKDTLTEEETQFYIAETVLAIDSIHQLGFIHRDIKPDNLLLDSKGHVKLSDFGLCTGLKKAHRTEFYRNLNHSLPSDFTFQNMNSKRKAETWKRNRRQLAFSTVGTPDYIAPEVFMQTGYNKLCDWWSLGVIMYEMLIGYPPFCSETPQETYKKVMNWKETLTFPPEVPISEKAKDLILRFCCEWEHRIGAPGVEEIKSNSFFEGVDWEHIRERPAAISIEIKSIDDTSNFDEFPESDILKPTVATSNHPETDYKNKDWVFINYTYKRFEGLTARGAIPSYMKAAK
Label 0 (no) if inhibition at 10 µM falls below 20%; label 1 (yes) in every other case.

                                entrysmiles  answerlabel
0  CN(C1CC1)S(=O)(=O)c1ccc(-c2cnc(N)c(-c3ccc4c(c3)CCNC4=O)c2)c(F)c1      1 (yes)
1  Nc1ncc(-c2ccc(NS(=O)(=O)C3CC3)cc2OC2CCCCC2)cc1-c1ccc2c(c1)CCNC2=O       0 (no)
2  Nc1ncc(-c2cccc3ncsc23)cc1-c1ccc2c(c1)CCNC2=O       0 (no)
3  Nc1ncc(-c2cccc([N+](=O)[O-])c2F)cc1-c1ccc2c(c1)CCNC2=O       0 (no)

Turning now to a further compound:
QUERY: Threshold query (inhibition at 10 µM >= 20%) on Nc1ncc(-c2ccc(NS(=O)(=O)C3CC3)cc2F)cc1-c1ccc2c(c1)CCNC2=O
RESULT: 0 (no)

====

target: GCN2 domain2 (Homo sapiens (Human), UniProt Q9P2K8); experiment: KiNativ assay; assay type: binding; settings: H929 live cell, read-out: inhibition (10 μM)
Sequence (Q9P2K8 whole entry, the tested form may be a part): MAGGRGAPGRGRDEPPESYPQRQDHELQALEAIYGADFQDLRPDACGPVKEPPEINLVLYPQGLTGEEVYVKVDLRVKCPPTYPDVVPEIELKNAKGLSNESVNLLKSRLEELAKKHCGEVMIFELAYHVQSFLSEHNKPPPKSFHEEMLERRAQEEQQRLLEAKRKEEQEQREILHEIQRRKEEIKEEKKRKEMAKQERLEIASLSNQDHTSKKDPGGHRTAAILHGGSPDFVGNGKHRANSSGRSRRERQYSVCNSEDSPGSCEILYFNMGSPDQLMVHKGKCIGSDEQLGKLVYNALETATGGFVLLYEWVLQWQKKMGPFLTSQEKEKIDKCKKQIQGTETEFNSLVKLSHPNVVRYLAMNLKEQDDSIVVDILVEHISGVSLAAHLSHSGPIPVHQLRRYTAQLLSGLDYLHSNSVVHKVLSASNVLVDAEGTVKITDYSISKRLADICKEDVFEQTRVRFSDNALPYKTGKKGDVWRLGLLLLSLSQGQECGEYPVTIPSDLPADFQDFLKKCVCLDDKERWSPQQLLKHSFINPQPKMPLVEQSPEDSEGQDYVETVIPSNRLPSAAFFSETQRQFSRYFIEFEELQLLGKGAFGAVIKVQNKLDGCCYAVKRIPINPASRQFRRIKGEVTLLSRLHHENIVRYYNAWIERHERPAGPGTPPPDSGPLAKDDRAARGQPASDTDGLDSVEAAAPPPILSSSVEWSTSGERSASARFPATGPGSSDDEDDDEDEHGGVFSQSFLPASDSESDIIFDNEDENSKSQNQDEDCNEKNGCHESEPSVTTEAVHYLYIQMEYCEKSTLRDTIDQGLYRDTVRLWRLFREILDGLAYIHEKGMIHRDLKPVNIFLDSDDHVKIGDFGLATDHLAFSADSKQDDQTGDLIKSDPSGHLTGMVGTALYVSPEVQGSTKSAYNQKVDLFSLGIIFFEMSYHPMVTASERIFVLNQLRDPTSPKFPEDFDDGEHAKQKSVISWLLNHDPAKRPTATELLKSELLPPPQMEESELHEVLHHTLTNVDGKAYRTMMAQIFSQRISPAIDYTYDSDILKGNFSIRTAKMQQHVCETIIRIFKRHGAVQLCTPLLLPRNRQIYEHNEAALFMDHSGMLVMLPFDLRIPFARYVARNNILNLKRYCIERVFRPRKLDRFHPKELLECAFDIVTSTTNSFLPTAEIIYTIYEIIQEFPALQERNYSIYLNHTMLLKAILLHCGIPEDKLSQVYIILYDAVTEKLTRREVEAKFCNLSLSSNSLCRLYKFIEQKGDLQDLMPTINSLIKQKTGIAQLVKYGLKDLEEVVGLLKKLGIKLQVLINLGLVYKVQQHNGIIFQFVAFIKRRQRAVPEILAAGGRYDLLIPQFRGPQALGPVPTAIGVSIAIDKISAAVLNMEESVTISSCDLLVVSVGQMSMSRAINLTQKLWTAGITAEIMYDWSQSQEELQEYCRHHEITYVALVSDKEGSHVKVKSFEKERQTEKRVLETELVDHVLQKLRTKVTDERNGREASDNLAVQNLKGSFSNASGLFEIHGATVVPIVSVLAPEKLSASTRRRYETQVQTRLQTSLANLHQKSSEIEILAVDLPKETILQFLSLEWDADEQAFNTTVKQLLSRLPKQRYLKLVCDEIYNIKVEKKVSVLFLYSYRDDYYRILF
parameterMeasured: inhibition at 10 µM (%)
Answer format: numeric, % implied, no suffix.

Sample answers from the record:
>>> print(df.to_string())
                                entrysmiles    parametermeasured  endpointunit  testvalue
0  Nc1ncc(-c2ccc(NS(=O)(=O)C3CC3)cc2OC2CCCCC2)cc1-c1ccc2c(c1)CCNC2=O  inhibition at 10 µM             %       43.5
1  Nc1ncc(-c2cccc3ncsc23)cc1-c1ccc2c(c1)CCNC2=O  inhibition at 10 µM             %       13.5

Memo: COc1cc(NS(=O)(=O)C2CC2)ccc1-c1cnc(N)c(-c2ccc3c(c2)CCNC3=O)c1 , reported inhibition at 10 µM: -12.3

CN(C1CC1)S(=O)(=O)c1ccc(-c2cnc(N)c(-c3ccc4c(c3)CCNC4=O)c2)c(F)c1 yielded inhibition at 10 µM of -32.1

Value of measured inhibition at 10 µM for the entry Nc1ncc(-c2ccc(NS(=O)(=O)C3CC3)cc2F)cc1-c1ccc2c(c1)CCNC2=O : -5.1

inhibition at 10 µM measured on Nc1ncc(-c2cccc([N+](=O)[O-])c2F)cc1-c1ccc2c(c1)CCNC2=O = 15.5

====

target: CaMK2d (Homo sapiens (Human)); experiment: KiNativ assay; format: binding; settings: H929 live cell, read-out: inhibition (10 μM)
Sequence (Q13557 whole entry): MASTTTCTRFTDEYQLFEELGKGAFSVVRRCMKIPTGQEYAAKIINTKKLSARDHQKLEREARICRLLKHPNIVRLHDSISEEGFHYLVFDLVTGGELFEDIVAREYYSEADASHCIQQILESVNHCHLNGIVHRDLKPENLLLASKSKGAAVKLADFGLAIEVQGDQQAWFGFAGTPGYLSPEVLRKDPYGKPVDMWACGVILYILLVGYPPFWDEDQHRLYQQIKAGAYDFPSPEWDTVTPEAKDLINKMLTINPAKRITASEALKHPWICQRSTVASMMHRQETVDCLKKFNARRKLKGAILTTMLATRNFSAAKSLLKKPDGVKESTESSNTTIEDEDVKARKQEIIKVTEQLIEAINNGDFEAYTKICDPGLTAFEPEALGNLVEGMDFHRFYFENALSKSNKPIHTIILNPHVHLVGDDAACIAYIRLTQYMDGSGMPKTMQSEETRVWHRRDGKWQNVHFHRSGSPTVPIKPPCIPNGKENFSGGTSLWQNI
parameterMeasured: inhibition at 10 µM (%)
Number only, in %; omit the unit.

As a guide, the following entries are already answered.
In [3]: df
Out[3]:
                                entrysmiles                       testedon    parametermeasured  testvalue
0  Nc1ncc(-c2ccc(NS(=O)(=O)C3CC3)cc2OC2CCCCC2)cc1-c1ccc2c(c1)CCNC2=O  CaMK2d (Homo sapiens (Human))  inhibition at 10 µM        4.2
1  Nc1ncc(-c2cccc3ncsc23)cc1-c1ccc2c(c1)CCNC2=O  CaMK2d (Homo sapiens (Human))  inhibition at 10 µM       -4.3
2  Nc1ncc(-c2cccc([N+](=O)[O-])c2F)cc1-c1ccc2c(c1)CCNC2=O  CaMK2d (Homo sapiens (Human))  inhibition at 10 µM       -5.7
3  COc1cc(NS(=O)(=O)C2CC2)ccc1-c1cnc(N)c(-c2ccc3c(c2)CCNC3=O)c1  CaMK2d (Homo sapiens (Human))  inhibition at 10 µM       15.9
4  CN(C1CC1)S(=O)(=O)c1ccc(-c2cnc(N)c(-c3ccc4c(c3)CCNC4=O)c2)c(F)c1  CaMK2d (Homo sapiens (Human))  inhibition at 10 µM        -31

Memo: Nc1ncc(-c2ccc(NS(=O)(=O)C3CC3)cc2F)cc1-c1ccc2c(c1)CCNC2=O , reported inhibition at 10 µM: 2.3

====

molecular target: CDC2 (Homo sapiens (Human), UniProt P06493); assay: KiNativ assay; format: binding; conditions: H929 live cell, read-out: inhibition (10 μM)
Sequence (P06493 whole entry): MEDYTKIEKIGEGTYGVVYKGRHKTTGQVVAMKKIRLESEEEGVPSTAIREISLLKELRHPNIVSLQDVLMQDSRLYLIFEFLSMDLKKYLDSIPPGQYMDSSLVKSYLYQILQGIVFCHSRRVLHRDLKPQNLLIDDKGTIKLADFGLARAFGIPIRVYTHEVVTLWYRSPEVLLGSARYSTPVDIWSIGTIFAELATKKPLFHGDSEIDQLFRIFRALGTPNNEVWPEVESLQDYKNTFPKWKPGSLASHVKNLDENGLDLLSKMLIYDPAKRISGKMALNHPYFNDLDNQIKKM
Decide by inhibition at 10 µM: equal to or exceeding 10% means 1, less means -1.

In [3]: df
Out[3]:
                                entrysmiles  answerlabel
0  Nc1ncc(-c2ccc(NS(=O)(=O)C3CC3)cc2F)cc1-c1ccc2c(c1)CCNC2=O            1
1  Nc1ncc(-c2cccc([N+](=O)[O-])c2F)cc1-c1ccc2c(c1)CCNC2=O           -1
2  Nc1ncc(-c2ccc(NS(=O)(=O)C3CC3)cc2OC2CCCCC2)cc1-c1ccc2c(c1)CCNC2=O           -1
3  Nc1ncc(-c2cccc3ncsc23)cc1-c1ccc2c(c1)CCNC2=O           -1
4  COc1cc(NS(=O)(=O)C2CC2)ccc1-c1cnc(N)c(-c2ccc3c(c2)CCNC3=O)c1            1

Please look at the following molecule next.
QUERY: Does the reported inhibition at 10 µM for CN(C1CC1)S(=O)(=O)c1ccc(-c2cnc(N)c(-c3ccc4c(c3)CCNC4=O)c2)c(F)c1 fall at or above the 10% mark?
RESULT: -1

====

Target: Erk2 (Homo sapiens (Human), UniProt P28482)
Sequence (P28482 whole entry): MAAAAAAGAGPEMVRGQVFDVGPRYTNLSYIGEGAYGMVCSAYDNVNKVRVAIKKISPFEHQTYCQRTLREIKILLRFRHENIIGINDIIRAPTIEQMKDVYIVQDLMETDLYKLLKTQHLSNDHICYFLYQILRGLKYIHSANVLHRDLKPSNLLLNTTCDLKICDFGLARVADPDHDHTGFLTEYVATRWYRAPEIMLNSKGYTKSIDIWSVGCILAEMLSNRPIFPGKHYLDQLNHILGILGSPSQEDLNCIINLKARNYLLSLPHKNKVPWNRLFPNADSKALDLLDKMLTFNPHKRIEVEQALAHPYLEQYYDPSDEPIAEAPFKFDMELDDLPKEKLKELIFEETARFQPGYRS
Assay: KiNativ assay
Assay type: binding
Conditions: H929 live cell, read-out: inhibition (10 μM)
Protocol: Biochemical IC50s of the compounds of the present disclosure against various kinases were measured in a KiNativ assay. Compounds were screened in duplicate at 10 μM in H929 live cell. IC50 was measured via Mass spectroscopy (MS).
Mark criterion not met for inhibition at 10 µM values under 30%, and criterion met for everything at or above.

Example cases with answers are listed next.
                                   compound        answerlabel
0  Nc1ncc(-c2cccc3ncsc23)cc1-c1ccc2c(c1)CCNC2=O [Compound I-13]      criterion met
1  Nc1ncc(-c2ccc(NS(=O)(=O)C3CC3)cc2OC2CCCCC2)cc1-c1ccc2c(c1)CCNC2=O [Compound I-65]  criterion not met
2  CN(C1CC1)S(=O)(=O)c1ccc(-c2cnc(N)c(-c3ccc4c(c3)CCNC4=O)c2)c(F)c1 [Compound I-28]  criterion not met
3  Nc1ncc(-c2cccc([N+](=O)[O-])c2F)cc1-c1ccc2c(c1)CCNC2=O [Compound I-9]      criterion met
4  Nc1ncc(-c2ccc(NS(=O)(=O)C3CC3)cc2F)cc1-c1ccc2c(c1)CCNC2=O [Compound I-51]      criterion met

Kindly review the next compound as well.
QUERY: Reported inhibition at 10 µM reaches at least 30% for COc1cc(NS(=O)(=O)C2CC2)ccc1-c1cnc(N)c(-c2ccc3c(c2)CCNC3=O)c1 [Compound I-50] ?
RESULT: criterion met

====

Target: TLK1 (Homo sapiens (Human), UniProt Q9UKI8)
Sequence (Q9UKI8 whole entry): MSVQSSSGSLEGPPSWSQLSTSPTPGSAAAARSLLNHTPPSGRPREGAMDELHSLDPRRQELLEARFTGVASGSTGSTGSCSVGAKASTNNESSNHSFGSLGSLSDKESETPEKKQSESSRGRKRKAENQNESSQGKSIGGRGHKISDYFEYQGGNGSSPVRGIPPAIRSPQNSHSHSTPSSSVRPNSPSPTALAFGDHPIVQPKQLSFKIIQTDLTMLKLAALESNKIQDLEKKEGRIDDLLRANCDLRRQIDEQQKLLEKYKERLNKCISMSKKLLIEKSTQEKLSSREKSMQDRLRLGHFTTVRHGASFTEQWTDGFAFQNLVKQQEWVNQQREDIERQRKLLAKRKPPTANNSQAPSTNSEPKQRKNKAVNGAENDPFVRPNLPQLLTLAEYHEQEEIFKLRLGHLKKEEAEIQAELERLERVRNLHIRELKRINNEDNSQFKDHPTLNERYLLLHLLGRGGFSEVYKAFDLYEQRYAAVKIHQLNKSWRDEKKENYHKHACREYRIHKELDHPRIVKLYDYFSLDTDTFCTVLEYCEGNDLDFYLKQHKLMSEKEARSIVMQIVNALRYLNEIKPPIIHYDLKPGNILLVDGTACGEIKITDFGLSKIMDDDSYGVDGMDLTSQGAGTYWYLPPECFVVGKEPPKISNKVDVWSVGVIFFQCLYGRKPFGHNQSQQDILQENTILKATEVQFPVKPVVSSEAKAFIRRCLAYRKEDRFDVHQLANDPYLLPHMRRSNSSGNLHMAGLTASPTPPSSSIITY
Test: KiNativ assay
Format: binding
Details: H929 live cell, read-out: inhibition (10 μM)
Protocol: Biochemical IC50s of the compounds of the present disclosure against various kinases were measured in a KiNativ assay. Compounds were screened in duplicate at 10 μM in H929 live cell. IC50 was measured via Mass spectroscopy (MS).
# inhibition at 10 µM listing for each entry below
Give the value in % but do not write % after it.

Some entries whose results are on file:
In [3]: df
Out[3]:
                                entrysmiles  testvalue
0  CN(C1CC1)S(=O)(=O)c1ccc(-c2cnc(N)c(-c3ccc4c(c3)CCNC4=O)c2)c(F)c1        1.8
1  Nc1ncc(-c2ccc(NS(=O)(=O)C3CC3)cc2OC2CCCCC2)cc1-c1ccc2c(c1)CCNC2=O       -1.2
2  Nc1ncc(-c2cccc([N+](=O)[O-])c2F)cc1-c1ccc2c(c1)CCNC2=O       28.8
3  Nc1ncc(-c2ccc(NS(=O)(=O)C3CC3)cc2F)cc1-c1ccc2c(c1)CCNC2=O      -11.8

Record Nc1ncc(-c2cccc3ncsc23)cc1-c1ccc2c(c1)CCNC2=O . Reported inhibition at 10 µM: 8.6

Noted for COc1cc(NS(=O)(=O)C2CC2)ccc1-c1cnc(N)c(-c2ccc3c(c2)CCNC3=O)c1 : its inhibition at 10 µM reads -7.5

====

Target: NuaK1 (Homo sapiens (Human), UniProt O60285)
Sequence (O60285 whole entry): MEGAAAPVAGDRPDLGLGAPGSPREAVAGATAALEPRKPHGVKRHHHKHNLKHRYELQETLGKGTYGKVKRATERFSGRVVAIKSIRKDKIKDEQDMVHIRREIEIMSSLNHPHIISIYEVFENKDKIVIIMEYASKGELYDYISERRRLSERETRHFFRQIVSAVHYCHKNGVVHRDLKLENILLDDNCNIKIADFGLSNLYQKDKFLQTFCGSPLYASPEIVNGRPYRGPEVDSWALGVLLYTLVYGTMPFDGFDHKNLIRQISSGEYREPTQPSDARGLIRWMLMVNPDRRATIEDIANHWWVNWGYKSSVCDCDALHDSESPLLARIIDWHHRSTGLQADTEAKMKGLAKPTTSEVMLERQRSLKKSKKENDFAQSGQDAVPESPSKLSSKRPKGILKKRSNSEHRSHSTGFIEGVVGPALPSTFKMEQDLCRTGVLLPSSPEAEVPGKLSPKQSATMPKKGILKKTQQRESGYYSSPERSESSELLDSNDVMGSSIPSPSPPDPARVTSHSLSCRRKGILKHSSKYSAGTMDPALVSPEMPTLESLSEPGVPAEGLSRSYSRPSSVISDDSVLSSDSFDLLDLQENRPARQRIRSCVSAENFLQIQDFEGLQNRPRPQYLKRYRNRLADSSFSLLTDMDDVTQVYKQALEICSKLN
Assay: KiNativ assay
Type: binding
Settings: H929 live cell, read-out: inhibition (10 μM)
Experimental: Biochemical IC50s of the compounds of the present disclosure against various kinases were measured in a KiNativ assay. Compounds were screened in duplicate at 10 μM in H929 live cell. IC50 was measured via Mass spectroscopy (MS).
Label label 1 when inhibition at 10 µM is at or above 70%; otherwise label label 0.

Record excerpt, results attached:
In [3]: df
Out[3]:
                                entrysmiles  answerlabel
0  Nc1ncc(-c2cccc([N+](=O)[O-])c2F)cc1-c1ccc2c(c1)CCNC2=O      label 1
1  CN(C1CC1)S(=O)(=O)c1ccc(-c2cnc(N)c(-c3ccc4c(c3)CCNC4=O)c2)c(F)c1      label 0

Next molecule, please.
QUERY: hey, is inhibition at 10 µM for this one >= 70%? Nc1ncc(-c2ccc(NS(=O)(=O)C3CC3)cc2OC2CCCCC2)cc1-c1ccc2c(c1)CCNC2=O
RESULT: label 0
